In this section, each of the compounds is paired with its reported pIC50.
Target: H1047R PIK3CA enzyme (Homo sapiens, UniProt P42336, H1047R)
Sequence (P42336 whole entry H1047R): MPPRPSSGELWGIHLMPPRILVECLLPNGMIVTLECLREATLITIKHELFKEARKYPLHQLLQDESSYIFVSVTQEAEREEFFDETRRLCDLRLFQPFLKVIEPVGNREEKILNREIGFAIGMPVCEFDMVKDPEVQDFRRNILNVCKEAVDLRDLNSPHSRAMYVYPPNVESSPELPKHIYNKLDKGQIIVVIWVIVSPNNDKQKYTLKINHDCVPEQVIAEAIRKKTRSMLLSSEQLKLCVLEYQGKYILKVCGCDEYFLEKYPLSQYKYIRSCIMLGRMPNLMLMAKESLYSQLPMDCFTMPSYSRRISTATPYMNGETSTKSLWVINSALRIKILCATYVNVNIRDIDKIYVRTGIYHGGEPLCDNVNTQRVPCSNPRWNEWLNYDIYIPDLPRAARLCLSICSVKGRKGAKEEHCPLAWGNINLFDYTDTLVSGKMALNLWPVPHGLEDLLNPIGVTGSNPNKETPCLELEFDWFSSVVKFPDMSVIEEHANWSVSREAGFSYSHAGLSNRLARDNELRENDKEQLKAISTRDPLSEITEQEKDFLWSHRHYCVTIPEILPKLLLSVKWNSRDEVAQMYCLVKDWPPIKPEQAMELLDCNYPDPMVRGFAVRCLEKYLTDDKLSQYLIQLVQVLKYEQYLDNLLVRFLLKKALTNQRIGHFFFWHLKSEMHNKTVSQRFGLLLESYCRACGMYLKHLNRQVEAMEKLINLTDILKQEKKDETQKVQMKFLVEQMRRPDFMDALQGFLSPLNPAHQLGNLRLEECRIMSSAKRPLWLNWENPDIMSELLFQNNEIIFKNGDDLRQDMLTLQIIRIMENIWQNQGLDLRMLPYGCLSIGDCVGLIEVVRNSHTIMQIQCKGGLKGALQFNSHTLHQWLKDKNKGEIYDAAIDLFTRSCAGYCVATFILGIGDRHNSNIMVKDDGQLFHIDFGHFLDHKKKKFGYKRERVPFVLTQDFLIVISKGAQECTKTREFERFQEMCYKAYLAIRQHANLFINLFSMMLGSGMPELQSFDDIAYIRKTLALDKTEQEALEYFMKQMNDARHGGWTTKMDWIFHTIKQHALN
Sequence (P27986 whole entry partner): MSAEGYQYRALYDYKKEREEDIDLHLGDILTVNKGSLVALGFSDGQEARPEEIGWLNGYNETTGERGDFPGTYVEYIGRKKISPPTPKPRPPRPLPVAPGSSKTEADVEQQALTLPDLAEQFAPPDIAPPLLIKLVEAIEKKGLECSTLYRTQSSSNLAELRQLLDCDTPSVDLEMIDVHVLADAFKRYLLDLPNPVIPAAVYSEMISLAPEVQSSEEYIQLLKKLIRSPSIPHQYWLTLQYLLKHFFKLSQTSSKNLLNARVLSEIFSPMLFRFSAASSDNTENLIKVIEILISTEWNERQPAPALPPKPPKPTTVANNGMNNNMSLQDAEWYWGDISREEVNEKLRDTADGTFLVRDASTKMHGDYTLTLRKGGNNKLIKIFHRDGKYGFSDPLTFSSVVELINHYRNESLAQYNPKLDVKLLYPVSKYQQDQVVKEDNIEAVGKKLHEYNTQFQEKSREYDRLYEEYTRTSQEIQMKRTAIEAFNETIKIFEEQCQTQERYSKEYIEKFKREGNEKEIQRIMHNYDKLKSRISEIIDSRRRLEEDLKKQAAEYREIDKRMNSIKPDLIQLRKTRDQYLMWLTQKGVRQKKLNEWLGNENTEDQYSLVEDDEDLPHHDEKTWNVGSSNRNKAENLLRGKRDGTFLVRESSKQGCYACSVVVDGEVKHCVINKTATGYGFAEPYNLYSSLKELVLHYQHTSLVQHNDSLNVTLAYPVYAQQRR
Assay: ADP-Glo Biochemical PIK3CA Kinase Assay
pIC50: −log10 of the molar value.

Take a look at these entries with their results.
Compound | pIC50
O=C1CCC[C@@H]([C@H]2NC(=O)c3cccc(NC(=O)c4cc(F)cc(C(F)(F)F)c4)c32)C1 (single isomer, unassigned) | 4.00 to 5.00
CS(=O)(=O)c1ccc(-c2cc(NC(=O)c3cc(F)cc(C(F)(F)F)c3)c3c(c2)C(=O)NC3c2cc(F)ccc2Cl)nc1 (centres unmarked) | ≥ 7.00
Cc1ccccc1C(=O)Nc1cc(Br)cc2c1C(c1cc(F)ccc1Cl)NC2=O (centres unmarked) | 4.00 to 5.00
Cn1cc2cc(-c3cc(NC(=O)c4cc(F)cc(C(F)(F)F)c4)c4c(c3)C(=O)NC4c3cc(F)ccc3Cl)ccc2n1 (centres unmarked) | ≥ 7.00
O=C1N[C@H](c2cc(F)ccc2Cl)c2c(NC(=O)N3C[C@](O)(C(F)(F)F)c4cc(F)ccc43)cc(-n3nccn3)cc21 (single isomer, unassigned) | 5.00 to 6.00
O=C(Nc1cc(Br)cc2c1C(c1cc(F)ccc1Cl)NC2=O)c1ccccc1F (centres unmarked) | 4.00 to 5.00
Nc1nc2ccc(-c3cc(NC(=O)c4cc(F)cc(C(F)(F)F)c4)c4c(c3)C(=O)N[C@@H]4c3cc(F)ccc3Cl)cn2n1 | ≥ 7.00
O=C1NC(c2cc(F)ccc2Cl)c2c(NC(=O)N3CCCCCC3)cc(Br)cc21 (centres unmarked) | 4.00 to 5.00

**Query** Quick one: pIC50 for Cc1ccc2c(c1)N(C(=O)Nc1cccc3c1C(c1cc(F)ccc1Cl)NC3=O)CC2 (centres unmarked) ?
**Result** 6.30 to 7.00

**Query** Any idea what its pIC50 is? The compound is O=C1N[C@@H](c2cc(F)ccc2Cl)c2c(NC(=O)[C@@H]3CCC[C@H](OC(F)(F)F)C3)cccc21 (single isomer, unassigned)
**Result** 4.00 to 5.00

**Query** Name the reported pIC50 value associated with the compound O=C(Nc1cc(CS(=O)(=O)Cc2ccncc2)cc2c1C(c1cc(F)ccc1Cl)NC2=O)c1cc(F)cc(C(F)(F)F)c1 (centres unmarked)
**Result** ≥ 7.00
